experiment notes: qHTS RealTime-Glo MT Cell Viability Assay in HEK293 cells - 24 hour (AID 1224886); also: nearly all actives have a fitted effect of over 50% in size
condition notes: RealTime-Glo luminescence; series mostly up to 76.8 µM
Records with an inconclusive call do not appear. The source made the active and inactive calls. Calls follow the shape of the dose curve; as a rule, active = well fitted cell-killing curve with a large enough effect in the repeat runs; inconclusive = weak or mixed curves, or effect the other way; inactive = flat fitted curve, though single readings scatter.
Labels: yes for active, no for inactive

- compound: "CCOC(=O)Cn1cccc1-c1nc(-c2ccc(OC)cc2)c(-c2ccc(OC)cc2)s1"
  category: "no"
- compound: "O[C@@H]([C@H](O)[C@H](O)CBr)[C@H](O)CBr"
  category: "no"
- compound: "Cc1nc2n(c(=O)c1CCN1CCC(c3noc4cc(F)ccc34)CC1)CCCC2"
  category: "yes"
- compound: "CCCCNS(=O)(=O)c1ccc(C)cc1"
  category: "no"
- compound: "C#C[C@]1(OC(C)=O)CC[C@H]2[C@@H]3CCC4=C[C@@H](OC(C)=O)CC[C@@H]4[C@H]3CC[C@@]21C"
  category: "yes"
- compound: "Nc1ccc(Oc2ccc(Cl)cc2)cc1"
  category: "yes"
- compound: "COc1c(C)c2c(c(O)c1C/C=C(\\C)CCC(=O)OCCN1CCOCC1)C(=O)OC2"
  category: "no"
- compound: "O=c1oc2cc(O)ccc2c2oc3cc(O)ccc3c12"
  category: "yes"
- compound: "CCN(CC)c1ccc2c(-c3ccc(S(=O)(=O)O)cc3S(=O)(=O)[O-])c3ccc(=[N+](CC)CC)cc-3oc2c1"
  category: "no"
- compound: "Cc1ccc(N/N=c2\\c(=O)cc/c(=N\\Nc3ccc(S(=O)(=O)O)cc3)c2=O)c(C)c1"
  category: "no"
- compound: "CCN(CC)C(=O)c1cc(S(=O)(=O)Cc2ccccc2)c(N2CCC(c3ccccc3)CC2)cc1N(CC)CCN(C)C"
  category: "yes"
- compound: "O=C1CCc2ccc(OCCCCN3CCN(c4cccc(Cl)c4Cl)CC3)cc2N1"
  category: "yes"
- compound: "c1ccc(SSc2ccccc2)cc1"
  category: "no"
- compound: "CN1CCC[C@@H]1CCO[C@](C)(c1ccccc1)c1ccc(Cl)cc1"
  category: "yes"
- compound: "C=CC(C)(CCC=C(C)C)OC=O (configuration not stated)"
  category: "no"
- compound: "O=C(/C=C/c1ccc(O)c(O)c1)O[C@@H](C(=O)O)[C@@H](OC(=O)/C=C/c1ccc(O)c(O)c1)C(=O)O"
  category: "no"
- compound: "Cc1c(C)c2c(c(C)c1O)CC[C@@](C)(CCC[C@H](C)CCC[C@H](C)CCCC(C)C)O2"
  category: "no"
- compound: "O=C(O)[C@H](O)[C@@H](O)[C@H](O[C@@H]1O[C@H](CO)[C@H](O)[C@H](O)[C@H]1O)[C@H](O)CO"
  category: "no"
- compound: "O=C(O)c1cc(=O)c2ccccc2o1"
  category: "no"
- compound: "C=Cc1cccc(C)c1"
  category: "no"
- compound: "CCCCCC/C=C\\CCCCCCCC(=O)O"
  category: "no"
- compound: "Cc1c(C)c([N+](=O)[O-])c(C(C)(C)C)c([N+](=O)[O-])c1C"
  category: "no"
- compound: "CC(C)NC[C@@H](O)COc1ccc(CC(N)=O)cc1"
  category: "no"
- compound: "O=C1C(c2[nH]c3ccc(S(=O)(=O)O)cc3c2O)=Nc2ccc(S(=O)(=O)O)cc21"
  category: "no"
- compound: "CC(C)(C)c1ccc(C(O)CCCN2CCC(C(O)(c3ccccc3)c3ccccc3)CC2)cc1 (configuration not stated)"
  category: "yes"
- compound: "Cc1cc(=O)oc2cc(O)cc(O)c12"
  category: "no"
- compound: "C=CCCC(=O)/C=C/C1C(C)=CCCC1(C)C (configuration not stated)"
  category: "no"
- compound: "c1cnccn1"
  category: "no"
- compound: "Cc1c(N)cccc1C(F)(F)F"
  category: "no"
- compound: "O=c1[nH]c2ccccc2n1CCCN1CCN(C(c2ccccc2)c2ccccc2)CC1"
  category: "yes"
- compound: "CCC(CC)(CC(=O)Nc1cccc(/C=C/c2nc(C3CCC3)cs2)c1)C(=O)O"
  category: "no"
- compound: "CC1=Nc2ccccc2C1(C)C"
  category: "no"
- compound: "Nc1nc(-c2ccccc2)cs1"
  category: "no"
- compound: "C#C[C@]1(O)CC[C@H]2[C@@H]3[C@H](C)CC4=C(CCC(=O)C4)[C@H]3CC[C@@]21C"
  category: "no"
- compound: "COC(=O)c1ccccc1OC"
  category: "no"
- compound: "COc1cccc(OC)c1C(=O)O"
  category: "no"
- compound: "Cc1cc(-n2nc3ccc(Cl)cc3n2)c(O)c(C(C)(C)C)c1"
  category: "no"

These data points were gathered from PubChem BioAssay (Tox21).
